test: Human HepG2 cell viability assay in 384 well format; format: toxicity, cell-based; set-up: dose 125 nL, time 70.5 hour; concentration not given beside the values; conditions: HepG2 cells, read-out: Inhibition

- COMPOUND: "CC(C)(C)n1nnnc1CN(CCc1ccccc1)Cc1ccccc1"
  cytotoxicity at 70.5 h, %: 1.44
- COMPOUND: "CC(C)c1nc(CN(C)C2CCN(CCn3cc(C#N)cn3)C2)no1 (stereo not drawn)"
  cytotoxicity at 70.5 h, %: -14.7
- COMPOUND: "CC(C)N(C)S(=O)(=O)N1CCCC1C(=O)N1CCSCC1 (stereo not drawn)"
  cytotoxicity at 70.5 h, %: -0.523
- COMPOUND: "Cc1cc(C(=O)NC2CC(=O)N(C(C)C)C2=O)c(C)n1C(C)C (stereo not drawn)"
  cytotoxicity at 70.5 h, %: -7.47
- COMPOUND: "O=C(C1CCC2(CCN(c3nncs3)CC2)C1)N1CCCC1 (stereo not drawn)"
  cytotoxicity at 70.5 h, %: 9.17
- COMPOUND: "c1ccc(CNC2CCc3ncnn3C2)nc1 (stereo not drawn)"
  cytotoxicity at 70.5 h, %: 6.6
- COMPOUND: "O=C(NC1CC1)c1nc2c(o1)CN(c1ncccn1)C2"
  cytotoxicity at 70.5 h, %: 1.1
- COMPOUND: "N#Cc1cc(NS(=O)(=O)c2cc(C(=O)O)cc(Cl)c2Cl)ccc1F"
  cytotoxicity at 70.5 h, %: 0.738
- COMPOUND: "Cc1cc(N2CCC(c3ncc[nH]3)CC2)c2ccccc2n1"
  cytotoxicity at 70.5 h, %: -7.19
- COMPOUND: "COc1ccc(C(=O)N2CCN(C(=O)CCCc3cn[nH]c3)CC2)cc1"
  cytotoxicity at 70.5 h, %: -5.64
- COMPOUND: "CN(CCc1cnn(C)c1)C(=O)C1COc2ccccc2C1 (stereo not drawn)"
  cytotoxicity at 70.5 h, %: -10.5
- COMPOUND: "COc1ncc(CN2CCOC(C)(C(=O)N3CCOCC3)C2)cn1 (stereo not drawn)"
  cytotoxicity at 70.5 h, %: -4.39
- COMPOUND: "COc1c(C2CCCN2CCOc2ccccc2C#N)c(C)nn1C (stereo not drawn)"
  cytotoxicity at 70.5 h, %: -0.493
- COMPOUND: "CC(C)COCCNC(=O)NC1CCCN(c2cnn(C)c2)C1 (stereo not drawn)"
  cytotoxicity at 70.5 h, %: -0.131
- COMPOUND: "CN1C(=O)CCCC12CCCN(C(=O)c1ccoc1)C2 (stereo not drawn)"
  cytotoxicity at 70.5 h, %: -10.6
- COMPOUND: "CCc1nc(C)c([C@H]2CN(C)C[C@@H]2C(=O)NC(C)(C)c2ccccc2)[nH]1"
  cytotoxicity at 70.5 h, %: -6.37
- COMPOUND: "Cc1cnc(CN(C)C2CCN(Cc3nccn3C)C2)o1 (stereo not drawn)"
  cytotoxicity at 70.5 h, %: -3.1
- COMPOUND: "CCCNC(=O)c1nn(CC)cc1NC(=O)c1c(C)nn(C)c1C"
  cytotoxicity at 70.5 h, %: -11.3
- COMPOUND: "COc1ccc(NC(=O)NCC(C)N2CCc3ccccc32)cc1 (stereo not drawn)"
  cytotoxicity at 70.5 h, %: -11.4
- COMPOUND: "O=C1NC2(Cc3ccccc31)CN(CC1CCCC1)C2"
  cytotoxicity at 70.5 h, %: -11.8
- COMPOUND: "CN1CCN(c2cc(CNC(=O)c3ccc(=O)[nH]n3)ccn2)CC1"
  cytotoxicity at 70.5 h, %: -21.2
- COMPOUND: "CC(C)(C)c1cnc(CN2CCC(NC(=O)CC3CCCC3)CC2)o1"
  cytotoxicity at 70.5 h, %: 14
- COMPOUND: "COc1ccc(F)cc1C(C(=O)O)N1CCCN(C2CCCC2)CC1 (stereo not drawn)"
  cytotoxicity at 70.5 h, %: -5.48
- COMPOUND: "Cc1ccc(CN(Cc2cc(C)no2)C2CC2)cc1"
  cytotoxicity at 70.5 h, %: -3.87
- COMPOUND: "COC(=O)CCN1CCCC1c1ccccc1Cl (stereo not drawn)"
  cytotoxicity at 70.5 h, %: -6.47
- COMPOUND: "COC(=O)C1CN(CC(=O)Nc2cccc(OC)c2)c2ccccc21 (stereo not drawn)"
  cytotoxicity at 70.5 h, %: -9.39
- COMPOUND: "NC(=O)C1CCN(C(=O)Cc2ccc(Cl)c(Cl)c2)CC1"
  cytotoxicity at 70.5 h, %: -2.27
- COMPOUND: "O=C1CC[C@H]2CN(c3ncc(F)cn3)CC[C@H]2N1CCc1c[nH]cn1"
  cytotoxicity at 70.5 h, %: -8.52
- COMPOUND: "Cn1cc(-c2ccnc(NCC3CC3)n2)cn1"
  cytotoxicity at 70.5 h, %: -10.3
- COMPOUND: "CSCc1noc(CNC(=O)C2CCN(C(=O)C3CCC3)CC2)n1"
  cytotoxicity at 70.5 h, %: -11.8
- COMPOUND: "CN(CC1CCN(c2ccccc2)C1)c1ccc(Cn2ccnc2)cn1 (stereo not drawn)"
  cytotoxicity at 70.5 h, %: -13.6
- COMPOUND: "O=C(Cc1ccccc1Cl)N1CCCC(n2cncn2)C1 (stereo not drawn)"
  cytotoxicity at 70.5 h, %: -7.27
- COMPOUND: "Cn1ncc2c1C(COCC1CC1)CN(Cc1cccnc1)C2 (stereo not drawn)"
  cytotoxicity at 70.5 h, %: -4.66
- COMPOUND: "CCOCC(=O)NCC(C)(O)c1cc(C)oc1C (stereo not drawn)"
  cytotoxicity at 70.5 h, %: -0.44
- COMPOUND: "O=S(=O)(NCCc1c[nH]c2ccc(F)cc12)C1CCOCC1"
  cytotoxicity at 70.5 h, %: -16
- COMPOUND: "Cc1nc(CN2CCC(CNC(=O)Nc3ccccc3)CC2)oc1C"
  cytotoxicity at 70.5 h, %: -6.72
- COMPOUND: "CN(C(=O)c1cn(C)cn1)[C@@H]1CCC[C@@H](Oc2ccccc2)[C@@H]1O"
  cytotoxicity at 70.5 h, %: -2.57
- COMPOUND: "C[C@@H]1CN(Cc2ccoc2)C[C@]12CCN(CC(=O)N(C)C)C2=O"
  cytotoxicity at 70.5 h, %: -12
- COMPOUND: "Cc1nn(Cc2ccc(C(=O)NCCCN3CCCC3=O)o2)c(C)c1Br"
  cytotoxicity at 70.5 h, %: -7.69
- COMPOUND: "COCC(=O)N1CC[C@H]2[C@H]1CCN2CC(C)C"
  cytotoxicity at 70.5 h, %: -12.6
- COMPOUND: "CCc1nnc2ccc(N3CCN(S(=O)(=O)c4ccc(C)s4)CC3)nn12"
  cytotoxicity at 70.5 h, %: -21.3
- COMPOUND: "O=C(CSc1ccc2c(c1)OCCO2)NS(=O)(=O)c1cc(F)ccc1F"
  cytotoxicity at 70.5 h, %: -7.36
- COMPOUND: "COCCOCC(=O)N(Cc1cccc(C)c1)C(C)C"
  cytotoxicity at 70.5 h, %: 3.91
- COMPOUND: "CCOCC(=O)N1CCCn2c(CN3CCCCC3)nnc2C1"
  cytotoxicity at 70.5 h, %: -1.12
- COMPOUND: "CCCOCCCNc1nccc(-c2cn(C)nc2C)n1"
  cytotoxicity at 70.5 h, %: -4.32
- COMPOUND: "Cc1ccc(-c2nnc(CN3CC[C@H](CO)[C@@H](O)C3)o2)n1C"
  cytotoxicity at 70.5 h, %: -2.96
- COMPOUND: "O=C(c1cnccn1)N1CCCC(Cc2cncc3ccccc23)C1 (stereo not drawn)"
  cytotoxicity at 70.5 h, %: -6.77
- COMPOUND: "CN(C)c1cc(CNC(=O)NCC2(C)CCCS2)ccn1 (stereo not drawn)"
  cytotoxicity at 70.5 h, %: 10.1

---

test: Human HepG2 cell viability assay in 384 well format; type: toxicity, cell-based; set-up: dose 125 nL, time 70.5 hour; concentration not given beside the values; conditions: HepG2 cells, read-out: Inhibition

- COMPOUND: "CC(C)c1nc(CN2CCCN(Cc3nnc(C4CC4)o3)CC2)no1"
  cytotoxicity at 70.5 h / %: 1.11
- COMPOUND: "Fc1cnc(N2CCCn3c(CN4CCOCC4)nnc3C2)nc1"
  cytotoxicity at 70.5 h / %: 25.5
- COMPOUND: "CC(C)c1nnc2n1CCN(CC(=O)N1CCc3sccc3C1)C2"
  cytotoxicity at 70.5 h / %: -6.79
- COMPOUND: "OC1(CN2CCCC2)COCCN(c2ncnc3[nH]ccc23)C1 (stereo unspecified)"
  cytotoxicity at 70.5 h / %: -3.06
- COMPOUND: "COC(=O)CC(c1cnn(C)c1)c1oc(C)cc(=O)c1O (stereo unspecified)"
  cytotoxicity at 70.5 h / %: 7.5
- COMPOUND: "Cc1noc(C)c1C(C)C(=O)N1CCCN(Cc2cscn2)CC1 (stereo unspecified)"
  cytotoxicity at 70.5 h / %: -9.23
